- protocol-description: MAD study, two additional single-dose cohorts: pharmacokinetics
- Format: in vivo, human
- particulars: human, plasma, oral; 240 mg single dose, fasted; read-out: AUC0-inf, Mean
- Protocol: A multiple ascending dose (MAD) study of Compound 1 with two additional single-dose cohorts was also completed. […] In the MAD study, multiple-dose pharmacokinetics and pharmacodynamics of Compound 1 were evaluated in four dose groups administered Compound 1 (40, 80, 120 and 200 mg BID) in the fasted state for 14-days (Table 3). […]
readout-kind: AUC(0-inf) (ng·h/mL)
Reply with just the number (in ng·h/mL).

# AUC(0-inf) (molecule: CC(=O)c1nn(CC(=O)N2[C@H](C(=O)Nc3nc(Br)ccc3C)C[C@@]3(C)C[C@@H]23)c2ccc(-c3cnc(C)nc3)cc12 ) is 3520
